All values here come from the RNAGym collection of RNA variant scans (doi:10.7554/elife.90254).

B1: OR4K15 (parent)
chain: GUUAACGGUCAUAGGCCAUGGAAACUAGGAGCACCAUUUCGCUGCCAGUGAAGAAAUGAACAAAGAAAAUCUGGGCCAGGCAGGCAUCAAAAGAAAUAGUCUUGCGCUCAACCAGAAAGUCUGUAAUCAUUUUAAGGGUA

variants of: B1; test: self-cleavage, relative activity (ratio to wild type); higher = more cleavage; in vitro, sequencing; the parent is a self-cleaving ribozyme
Please use met whenever self-cleavage is not below 0.5, and not met whenever it is.

- residue codes: "GUUAACGGUCAUAGGCCACGGAAACUAGGAGCACCAUUUCGCUGCCAGUGAAGAAAUGAACAAAGAAAAUCUGGGCCAGGCAGGCAUCAAAAGAAAUAGUCUUGCGCUCAACCAGAAAGUCUGUAAUCAUUUUAAGAGUA"
  cat: "met"
- residue codes: "GUUAACGGUCAUAGGCCAUGAAAACUAGGAGCACCAUUUCGCUGCCAGUGAAGAAAUGAACAAAGAAAUUCUGGGCCAGGCAGGCAUCAAAAGAAAUAGUCUUGCGCUCAACCAGAAAGUCUGUAAUCAUUUUAAGGGUA"
  cat: "met"
- residue codes: "GUUAACGGUCAUAGGCCAUGGAAACUAGGAGCACCAUUUCGCUGCCCGUGAAGAAAUGAACAAAGAAAAUCUGGGCCAGGCAGGCAUCAAAAGAAAUAGUCUUGCGCCCAACCAGAAAGUCUGUAAUCAUUUUAAGGGUA"
  cat: "not met"
- residue codes: "GUUAACGGUCAUAGGCCAUGGAAACUAGGAGCGCCAUUUCGCUGCCAGUGAAGAAAUGAACAAAGAAAAUCUGGGCCAGGCAGGCAUCAAAAGAAAUAGUCGUGCGCUCAACCAGAAAGUCUGUAAUCAUUUUAAGGGUA"
  cat: "not met"
- residue codes: "GUUAACGGUCAUAGGCCAUGAAAACUAGGAGCACCAUUUCGCUGCCAGUGAAGAAAUGAACAAAGAAAAUCUGGGCCAGGCAGGCAUCAAAAGAAAUAGUCUUGCGCUCAACCAGGAAGUCUGUAAUCAUUUUAAGGGUA"
  cat: "not met"
- residue codes: "GUUAACGGUCAUAGGCCAUGGAAACUAGGAGCACCAUGUCGCUGCCAGUGAAGAAAUGAACAAAGAAAAUCUGGGCCAGGCAGGCAUCAAAAGAAAUAGUCUUGCGCUCAACCGGAAAGUCUGUAAUCAUUUUAAGGGUA"
  cat: "met"
- residue codes: "GUUAACGGUCAUAGGCCAUGGAUACUAGGAGCACCAUUUCGCUGCCAGUGAAGAAAUGAACAAAGAAAAUCUGGGACAGGCAGGCAUCAAAAGAAAUAGUCUUGCGCUCAACCAGAAAGUCUGUAAUCAUUUUAAGGGUA"
  cat: "not met"
- residue codes: "GUUAACGGUCAUAGGCCAUGGAAACUAGGAGCACCAUUUCGCUGCCAGUGAAGAAAUGAACAAAGAAAAUCUGGGCCAGGCAGGCAUCAAAAGAAAUAGUCUUGCGCUCAACCAGAAAGUCUGUGAUCAUUCUAAGGGUA"
  cat: "met"
- residue codes: "GUUAACGGUCAUAGGCCAUGGAAACUAGGAGCACCAUUUCGCUGCCAGUGAAGGAAUGAACAAAGAAAAUCUGGGCCAGGCAGGCAUCAAAAGAAAUAGUCUUGCGCUCAACCAGAAAGUCUGUAAUCAUUUUAAGGGUG"
  cat: "met"
- residue codes: "GUUAACGGUCAUAGGCCAUGGAAACUAGGUGCACCAUUUCGCUGCCAGUGAAGAAAUGAACAAAGAAAAACUGGGCCAGGCAGGCAUCAAAAGAAAUAGUCUUGCGCUCAACCAGAAAGUCUGUAAUCAUUUUAAGGGUA"
  cat: "met"
- residue codes: "GUUAACGGUCAUAGGCCAUGGAAACUAGGAGCACCAUUUCGCUGCCAGUGAAGAAAUGAACAAAGGAAAUCUGGGCCAGGCAGGCAUCAAAAGAAAUAGUCAUGCGCUCAACCAGAAAGUCUGUAAUCAUUUUAAGGGUA"
  cat: "met"
